# System: SW-620 colon
# assay_text: NCI tumour cell line growth inhibition, 48 h
assay_endpoint: TGI (µM)
Write it as a number; the unit µM goes unstated.

Would you please look over these solved cases?
compound: CCC/C(Cl)=N\OC(=O)Nc1ccc(F)c([N+](=O)[O-])c1
TGI (µM): 39.6
//
compound: COC12OC3CC4(C)C(=CC3OC(OC(C)C1O)C2O)CCC1C4CCC2(C)C(c3ccc(=O)oc3)CCC12O (centres undefined)
TGI (µM): 0.00731
//
compound: COc1ccc2c3c(c4ccccc4cc13)C(=O)N(CCN(C)CCN)C2=O
TGI (µM): 1.32

Here is the next item to consider.
// Nc1nc2ccc3[nH]ncc3c2c2c1CCCC2 : TGI value = 10

====

# System: SR leukemia
# assay_text: NCI tumour cell line growth inhibition, 48 h; in the data active = GI50 below about 0.43 µM; inactive = the rest
Result category, one only: 1 (active), -1 (inactive)

The examples below pair each entry with its known result.
molecule: CN1CCN(C(=O)c2c(NC(=O)NS(=O)(=O)c3ccccc3)sc3c2CCCCC3)CC1
group_label: -1
//
molecule: CN1C(=O)C(=Cc2cn(Cc3ccccc3)c3ccccc23)C(=O)N(C)C1=O
group_label: -1
//
molecule: COc1cc2c(cc1OC)-c1ccc3cc4c(cc3c1N(CCN(C)C)C2)OCO4
group_label: 1
//
molecule: CC(C)[NH-].CC(C)[NH-].O.O.[Cl][Pt+2][Cl]
group_label: -1
//
molecule: CCOC(=O)NC1=C(N2CC2)C(=O)C(NC(=O)OCC)=C(N2CC2)C1=O
group_label: 1

## Input Name the outcome recorded for CN[C@@H]1C[C@H]2O[C@@](C)([C@@H]1OC)n1c3ccccc3c3c4c(c5c6ccccc6n2c5c31)C(=O)N[C@H]4O in the assay.
## Output 1

## Input Check the results log: what was the call for Cn1c(/C=C(\C#N)c2cccc(C(F)(F)F)c2)nc2c(N3CCOCC3)nc(Cl)nc21 ?
## Output 1

## Input Kindly provide the recorded test outcome for the following molecule: O=C(/C=C/c1cccc([N+](=O)[O-])c1)c1ccc(O)c(CN2CCN(c3cc4c(cc3F)c(=O)c(C(=O)O)cn4C3CC3)CC2)c1
## Output 1

## Input Returns: the outcome recorded for CSc1n(Cc2ccc3ccccc3c2)c(C)c[n+]1Cc1ccc2ccccc2c1 in this assay.
## Output 1

## Input Record lookup: outcome of this test for CC1(C)CCC[C@]2(C)c3cc(O)ccc3CC[C@@H]12 ?
## Output -1

## Input I'd appreciate the recorded outcome for O=C(Nc1ccc2[nH]c(C(=O)N3CC(CCl)c4c3cc([N+](=O)[O-])c3ccccc43)cc2c1)c1cc2ccccc2o1 (stereo not given) from this test.
## Output -1

## Input // outcome(item) with item = COc1ccc([I+]c2ccccc2)cc1
## Output -1

## Input For COc1cc(F)cc([C@@H](CO)NC(=O)[C@@H](C)N2Cc3ccc(-c4nc(NC5CCOCC5)ncc4Cl)cc3C2=O)c1 , which call appears in the assay record?
## Output -1

## Input // outcome(item) with item = Cc1cc([N+](=O)[O-])ccc1NS(=O)(=O)c1cc(Cl)ccc1Cl
## Output -1

## Input Hi team, can someone confirm the assay call for CCCOC(=O)N[C@H]1CCc2cc(OC)c(OC)c(OC)c2-c2ccc(SC)c(=O)cc21 ?
## Output 1
